Target: wild type PRC2 (wtPRC2) complex (Homo sapiens)
Sequence (O75530 whole entry): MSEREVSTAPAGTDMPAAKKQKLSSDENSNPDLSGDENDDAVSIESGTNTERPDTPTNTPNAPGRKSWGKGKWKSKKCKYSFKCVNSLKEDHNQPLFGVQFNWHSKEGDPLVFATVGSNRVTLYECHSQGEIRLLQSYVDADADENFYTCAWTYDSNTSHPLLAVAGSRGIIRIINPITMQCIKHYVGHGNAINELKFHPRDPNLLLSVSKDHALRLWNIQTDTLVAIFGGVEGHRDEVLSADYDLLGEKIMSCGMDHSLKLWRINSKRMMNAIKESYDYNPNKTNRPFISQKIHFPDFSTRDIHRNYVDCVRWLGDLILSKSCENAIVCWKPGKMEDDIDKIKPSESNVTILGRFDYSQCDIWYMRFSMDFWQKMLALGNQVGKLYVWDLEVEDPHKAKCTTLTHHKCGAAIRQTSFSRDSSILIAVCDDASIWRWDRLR
Sequence (Q15910 whole entry partner): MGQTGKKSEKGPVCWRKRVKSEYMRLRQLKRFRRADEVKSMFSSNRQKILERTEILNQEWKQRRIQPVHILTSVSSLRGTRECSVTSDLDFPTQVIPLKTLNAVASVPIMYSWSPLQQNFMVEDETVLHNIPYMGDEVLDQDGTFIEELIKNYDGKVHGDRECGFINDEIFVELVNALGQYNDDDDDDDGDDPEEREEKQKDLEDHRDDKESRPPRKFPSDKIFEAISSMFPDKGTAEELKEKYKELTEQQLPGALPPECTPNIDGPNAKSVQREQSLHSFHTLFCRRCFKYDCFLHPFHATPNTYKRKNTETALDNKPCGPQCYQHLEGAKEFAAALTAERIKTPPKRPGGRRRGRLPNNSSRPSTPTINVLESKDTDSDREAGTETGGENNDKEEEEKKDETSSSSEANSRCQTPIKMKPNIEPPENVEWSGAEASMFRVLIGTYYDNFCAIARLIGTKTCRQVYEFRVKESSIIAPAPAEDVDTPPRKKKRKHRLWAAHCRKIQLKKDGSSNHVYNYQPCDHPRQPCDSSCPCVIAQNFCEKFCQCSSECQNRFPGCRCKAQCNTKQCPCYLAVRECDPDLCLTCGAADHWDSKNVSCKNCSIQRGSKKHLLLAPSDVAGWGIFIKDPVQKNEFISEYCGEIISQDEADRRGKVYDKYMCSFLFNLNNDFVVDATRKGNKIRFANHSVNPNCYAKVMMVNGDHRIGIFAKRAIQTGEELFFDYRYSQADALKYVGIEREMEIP
Sequence (Q15022 whole entry partner): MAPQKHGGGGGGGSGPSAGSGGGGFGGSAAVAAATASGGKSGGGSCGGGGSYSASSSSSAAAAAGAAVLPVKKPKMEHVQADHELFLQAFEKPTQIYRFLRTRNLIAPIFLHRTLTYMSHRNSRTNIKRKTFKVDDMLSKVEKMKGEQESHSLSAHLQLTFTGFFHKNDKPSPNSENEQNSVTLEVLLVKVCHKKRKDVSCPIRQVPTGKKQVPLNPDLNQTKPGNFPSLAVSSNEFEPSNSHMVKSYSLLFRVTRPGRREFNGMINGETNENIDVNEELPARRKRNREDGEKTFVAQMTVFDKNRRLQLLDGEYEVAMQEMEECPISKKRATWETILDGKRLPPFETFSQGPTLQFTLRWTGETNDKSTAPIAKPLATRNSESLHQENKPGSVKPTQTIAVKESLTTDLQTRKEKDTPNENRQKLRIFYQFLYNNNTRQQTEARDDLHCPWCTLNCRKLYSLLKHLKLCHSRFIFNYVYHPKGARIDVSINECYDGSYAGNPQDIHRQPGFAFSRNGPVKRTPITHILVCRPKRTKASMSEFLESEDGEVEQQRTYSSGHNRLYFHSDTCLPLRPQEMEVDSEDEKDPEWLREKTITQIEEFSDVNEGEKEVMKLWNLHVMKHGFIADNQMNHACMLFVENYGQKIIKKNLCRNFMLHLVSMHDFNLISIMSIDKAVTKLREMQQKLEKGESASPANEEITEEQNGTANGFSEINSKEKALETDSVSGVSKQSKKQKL
Sequence (Q09028 whole entry partner): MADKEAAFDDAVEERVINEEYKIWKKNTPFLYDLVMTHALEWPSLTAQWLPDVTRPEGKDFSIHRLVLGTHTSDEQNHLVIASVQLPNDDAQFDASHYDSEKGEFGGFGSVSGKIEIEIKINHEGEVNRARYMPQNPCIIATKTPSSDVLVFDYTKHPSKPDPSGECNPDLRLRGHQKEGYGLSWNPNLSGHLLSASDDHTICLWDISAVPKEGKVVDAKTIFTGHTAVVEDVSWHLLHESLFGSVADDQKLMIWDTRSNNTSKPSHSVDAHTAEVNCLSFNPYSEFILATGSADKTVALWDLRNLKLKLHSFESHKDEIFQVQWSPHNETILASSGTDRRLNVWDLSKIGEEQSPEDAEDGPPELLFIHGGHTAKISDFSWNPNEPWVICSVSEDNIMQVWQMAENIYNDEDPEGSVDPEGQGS
Sequence (Q6ZN18 whole entry partner): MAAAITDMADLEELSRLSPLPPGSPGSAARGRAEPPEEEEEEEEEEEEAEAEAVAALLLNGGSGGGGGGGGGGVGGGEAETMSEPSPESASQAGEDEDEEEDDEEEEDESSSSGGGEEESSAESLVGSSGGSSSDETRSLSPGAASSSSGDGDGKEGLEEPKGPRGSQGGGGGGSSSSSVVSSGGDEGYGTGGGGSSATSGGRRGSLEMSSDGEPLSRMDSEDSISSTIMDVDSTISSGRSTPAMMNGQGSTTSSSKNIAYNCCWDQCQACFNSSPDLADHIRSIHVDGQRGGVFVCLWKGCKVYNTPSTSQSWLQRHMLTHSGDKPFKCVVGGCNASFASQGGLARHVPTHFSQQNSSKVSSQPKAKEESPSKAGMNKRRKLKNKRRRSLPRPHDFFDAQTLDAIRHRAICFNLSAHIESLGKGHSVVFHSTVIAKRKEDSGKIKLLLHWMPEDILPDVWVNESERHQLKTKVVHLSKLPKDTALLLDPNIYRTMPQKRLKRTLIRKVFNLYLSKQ
Assay: EED LC-MS assay (SAH production by PRC2)
Type: biochemical
Details: PRC2 LC-MS assay; read-out: (b) IC50 EED LC-MS Qualified
pIC50: −log10 of the molar value.
Outcome: met for pIC50 of at least 7; not met for anything lower.

{"structure_string": "COc1cccc(F)c1CNc1ccc(-c2ccnc(F)c2C)c2nncn12", "answer_label": "met"}
{"structure_string": "COc1cccc(F)c1CNc1ccc(-c2ccnc(C(F)F)c2C)c2nncn12", "answer_label": "met"}
{"structure_string": "COc1cccc(F)c1CNc1ccc(-c2cnn(C3CC3)c2)c2nncn12", "answer_label": "not met"}
{"structure_string": "COc1cccc(F)c1CNc1ccc(-c2cccnc2OC)c2nncn12", "answer_label": "not met"}

# next compound below
Please check the record `COc1ncc(-c2ccc(NCc3c(F)cccc3OC)n3cnnc23)c(C)n1` and state if its pIC50 is at or above 7. met
